The measurements presented in this section are drawn from patent US20190276496A1.

Target: GST-FOXP3 (GST fused to the isoform A from human FOXP3 gene) (human) [GST: P08515]
Sequence (P08515 1-218, tags or fused parts left off): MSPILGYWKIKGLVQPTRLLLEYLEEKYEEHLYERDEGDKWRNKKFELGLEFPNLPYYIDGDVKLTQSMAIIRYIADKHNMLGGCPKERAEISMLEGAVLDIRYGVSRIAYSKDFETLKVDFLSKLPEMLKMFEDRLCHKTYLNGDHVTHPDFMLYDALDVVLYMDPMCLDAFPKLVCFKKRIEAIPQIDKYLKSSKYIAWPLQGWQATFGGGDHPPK
Assay: AlphaScreen competition, GST-FOXP3 (100 nM) / His-Runx1 (46 nM, competitor); peptide at 100 µM
Item-by-item account of Foxp3-Runx1 Inhibition % inhibition
readout: Foxp3-Runx1 Inhibition % inhibition (%)

binder	unitsText	recordedResult
RDFQSFRKMWAFFAM [peptide of SEQ ID NO: 30]	%	73.9
RDFQAFRKMWPFFAM [peptide of SEQ ID NO: 19]	%	74.7
RDAQSFRKMWPFFAM [peptide of SEQ ID NO: 15]	%	55.6
RDFQSFRKMWPFFAM [p60 (peptide of SEQ ID NO: 1)]	%	54.5
RAFQSFRKMWPFFAM [peptide of SEQ ID NO: 5]	%	76
